Listed here are binders together with their documented OD450.
# System: T1, Peptide 4: Biotin-AGGGGSGGGGSGGGGSAAA-Tyr-acid (N-terminal biotin; C-terminal acid)
# T1 construct: Control peptide without PC
# T1 peptide: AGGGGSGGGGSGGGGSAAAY
# Protocol notes: scFv ELISA
Write it as a number; the unit OD450 goes unstated.

Given item PcOxP_DB03_F03 (scFv, V domains shown, scFv in periplasmic extract) VH: EVQLLESGGGLVQPGGSLRLSCAASGFTFSDQYMEWVRQAPGKGLEWVAASRNKNNDYTTEYADSVKGRFTISRDNSKNTLYLQMNSLRAEDTAVYYCARDYYGASYWYFDVWGQGTLVTVSS VL: DIVMTQSPDSLAVSLGERATINCTASQSVYSSKHKKHYLAWYQQKPGQPPKLLIYGANNRYIGVPDRFSGSGSGTDFTLTISSLQAEDVAVYYCGQFYSYPLTFGGGTKVEIK , the value recorded as its OD450 is 0.05

What the record says about PcOxP_DB03_E04 (scFv, V domains shown, scFv in periplasmic extract) VH: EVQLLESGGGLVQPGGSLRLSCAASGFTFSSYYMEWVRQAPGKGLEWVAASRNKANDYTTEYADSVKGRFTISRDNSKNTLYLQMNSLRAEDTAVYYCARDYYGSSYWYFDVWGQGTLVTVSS VL: DIVMTQSPDSLAVSLGERATINCTASESLYSSKHKVHYLAWYQQKPGQPPKLLIYGASNRYLGVPDRFSGSGSGTDFTLTISSLQAEDVAVYYCAQFYSYPLTFGGGTKVEIK : OD450 is 0.06

Briefly, OD450 measured for PcOxP_DB04_B11 (scFv, V domains shown, scFv in periplasmic extract) VH: EVQLLESGGGLVQPGGSLRLSCAASGDTFSDFYMEWVRQAPGKGLEWVAASRWKANDYTTEYADSVKGRFTISRDNSKNTLYLQMNSLRAEDTAVYYCARDYYGSSYWYFDVWGQGTLVTVSS VL: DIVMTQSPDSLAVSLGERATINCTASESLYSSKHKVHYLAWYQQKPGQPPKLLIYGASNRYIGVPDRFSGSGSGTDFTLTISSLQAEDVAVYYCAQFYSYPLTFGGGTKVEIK : 0.05

Record PcOxP_DB03_D02 (scFv, V domains shown, scFv in periplasmic extract) VH: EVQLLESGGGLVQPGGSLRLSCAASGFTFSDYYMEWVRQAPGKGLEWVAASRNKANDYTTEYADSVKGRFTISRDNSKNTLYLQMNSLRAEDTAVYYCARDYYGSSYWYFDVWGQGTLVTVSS VL: DIVMTQSPDSLAVSLGERATINCTASESLYSSKHKVHYLAWYQQKPGQPPKLLIYGATNRYIGVPDRFSGSGSGTDFTLTISSLQAEDVAVYYCAEFYSYPLTFGGGTKVEIK , field OD450: 0.05

For this binder ( PcOxP_DB03_A07 (scFv, V domains shown, scFv in periplasmic extract) VH: EVQLLESGGGLVQPGGSLRLSCAASGFHFSDFYMEWVRQAPGKGLEWVAASRNKANDYTTEYADSVKGRFTISRDNSKNTLYLQMNSLRAEDTAVYYCARDYYGSSYWYFDVWGQGTLVTVSS VL: DIVMTQSPDSLAVSLGERATINCTASENLYSSKHKVHYLAWYQQKPGQPPKLLIYGASNRYSGVPDRFSGSGSGTDFTLTISSLQAEDVAVYYCAQFYSYPLTFGGGTKVEIK ), measured OD450 is 0.04
